B1: POU domain, class 3, transcription factor 4, residues 280 to 335; numbered along this chain, P49335 (parent)
chain: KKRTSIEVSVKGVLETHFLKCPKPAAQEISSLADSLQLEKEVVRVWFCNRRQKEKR

# Variants of: B1
# assay-text: abundance fitness (aPCA) (normalised: wild type 0, dead -1); higher = more abundant; growth selection in yeast, the domain comes from the species named
# test-context: Homo sapiens

- mutation-annotation: "W46F"
  abundance fitness: -1.05
- mutation-annotation: "V42G"
  abundance fitness: -0.648
- mutation-annotation: "P22D"
  abundance fitness: -0.363
- mutation-annotation: "C21Y"
  abundance fitness: -0.898
- mutation-annotation: "E15P"
  abundance fitness: -0.659
- mutation-annotation: "S35A"
  abundance fitness: 0.071
- mutation-annotation: "V45S"
  abundance fitness: 0.097
- mutation-annotation: "Q37A"
  abundance fitness: -0.437
- mutation-annotation: "I6S"
  abundance fitness: -0.152
- mutation-annotation: "D34N"
  abundance fitness: -0.384
- mutation-annotation: "K53N"
  abundance fitness: -0.544
